Biological target: T1, human FRα (Homo sapiens, UniProt P15328)
T1 construct: CD33 leader (signal peptide) (N, cleaved yes); made in house; host or cells: in-house suspension-adapted CHO cell line
T1 sequence (P15328 with tags, fused parts or gaps): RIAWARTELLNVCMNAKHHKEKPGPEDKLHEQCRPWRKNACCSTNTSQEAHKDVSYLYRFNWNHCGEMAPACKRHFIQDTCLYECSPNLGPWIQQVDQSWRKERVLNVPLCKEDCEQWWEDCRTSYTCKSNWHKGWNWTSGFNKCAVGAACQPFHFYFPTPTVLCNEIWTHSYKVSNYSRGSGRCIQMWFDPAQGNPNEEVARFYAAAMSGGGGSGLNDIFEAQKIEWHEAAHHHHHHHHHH
Assay: HTRF epitope competition assay with Comparator 3 IgG
Assay type: binding
Details: n > 2; human IgG1 format
Reported endpoint: HTRF epitope competition assay, geomean IC50 (M), Comparator 3 IgG

Ask | Give HTRF epitope competition assay, geomean IC50 (M), Comparator 3 IgG for the following molecule: AB1370095: anti-FRα fully human IgG1 antibody; VH SEQ ID NO: 45, VL SEQ ID NO: 46 (antibody, V domains shown) VH: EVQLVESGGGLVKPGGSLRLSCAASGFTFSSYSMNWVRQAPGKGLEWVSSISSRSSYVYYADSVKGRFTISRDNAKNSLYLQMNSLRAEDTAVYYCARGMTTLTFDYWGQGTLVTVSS VL: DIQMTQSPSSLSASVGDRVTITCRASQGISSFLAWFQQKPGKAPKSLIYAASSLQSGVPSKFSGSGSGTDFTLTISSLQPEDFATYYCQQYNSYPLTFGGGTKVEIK
Reply | no inhibition

Ask | Give HTRF epitope competition assay, geomean IC50 (M), Comparator 3 IgG for the following molecule: AB1370083: anti-FRα fully human IgG1 antibody; VH SEQ ID NO: 43, VL SEQ ID NO: 44 (antibody, V domains shown) VH: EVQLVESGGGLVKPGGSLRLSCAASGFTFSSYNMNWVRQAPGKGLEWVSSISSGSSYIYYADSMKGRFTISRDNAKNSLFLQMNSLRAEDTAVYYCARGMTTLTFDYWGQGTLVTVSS VL: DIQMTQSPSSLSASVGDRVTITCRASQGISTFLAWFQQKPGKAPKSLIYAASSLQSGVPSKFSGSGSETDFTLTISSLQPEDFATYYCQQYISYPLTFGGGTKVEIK
Reply | no inhibition

Just for reference, patent US20230295293A1 is where these values come from.
